test system: PSMA + PC-3 PiP and PSMA − PC-3 flu tumor xenografts; conditions: PSMA− tumor xenograft, 2 H post-injection
Assay Readout: Biodistribution: PC-3 flu

Provide Biodistribution: PC-3 flu values for the following items, in order.
1. N=C(N)NCc1ccc(C(=O)NCCCC[C@H](NC(=O)N[C@@H](CCC(=O)O)C(=O)O)C(=O)O)cc1[131I] [[^131I] labeled 7 (PSMA-620)]
2. O=C(O)CC[C@H](NC(=O)N[C@@H](CCC(=O)NCCc1ccc([211At])cc1)C(=O)O)C(=O)O [[^211At]HS-549]
3. O=C(O)CC[C@H](NC(=O)NC(CCCCNC(=O)c1ccc([211At])cc1)C(=O)O)C(=O)O (stereo partly shown) [[^211At]YC-I-27]

Completion:
0.80 ± 0.11 % ID/g
2.82 ± 0.60 % ID/g
1.81 ± 0.27 % ID/g

Provide Biodistribution: PC-3 flu values for the following items, in order.
1. O=C(O)CC[C@H](NC(=O)N[C@@H](CCCCNC(=O)c1ccc([131I])cc1)C(=O)O)C(=O)O [[^131I]YC-I-27]
2. N=C(N)NCc1ccc(C(=O)NCCCCC(NC(=O)CCCCCCC(=O)NCCCC[C@H](NC(=O)N[C@@H](CCC(=O)O)C(=O)O)C(=O)O)C(=O)O)cc1[131I] (stereo partly shown) [[^131I] labeled PSMA-904]

Completion:
1: 0.40 ± 0.11 % ID/g; 2: 0.22 ± 0.06 % ID/g

Provide Biodistribution: PC-3 flu values for the following items, in order.
1. O=C(O)CC[C@H](NC(=O)N[C@@H](CCC(=O)NCCc1ccc([131I])cc1)C(=O)O)C(=O)O [[^131I]HS-549]
2. N=C(N)NCc1ccc(C(=O)NCCCCC(NC(=O)CCCCCCC(=O)NCCCC[C@H](NC(=O)N[C@@H](CCC(=O)O)C(=O)O)C(=O)O)C(=O)O)cc1[211At] (stereo partly shown) [[^211At] labeled PSMA-904]

Completion:
["1.51 ± 0.30 % ID/g", "0.52 ± 0.05 % ID/g"]

The reported measurements were obtained from patent US20200231614A1.
